Assay: Volume of distribution at steady state in rat
Format: ADME, organism-based
Settings: in vivo, read-out: Vdss
measured.parameter: Vd (L/kg)
Please state the figure in L/kg; there is no need to write the unit.

Study these solved cases before continuing.
{"columns": ["cpd.smiles", "Vd / L/kg"],
 "data": [
  ["CC(C)N1C[C@H](C(=O)Nc2ccc(Cl)cn2)[C@@H](C(=O)Nc2ccc(-n3ccccc3=O)cc2F)C1", 0.47],
  ["CCS(=O)(=O)N1C[C@H](C(=O)Nc2ccc(Cl)cn2)[C@@H](C(=O)Nc2ccc(-n3ccccc3=O)cc2F)C1", 0.04],
  ["COC(=O)N1C[C@H](C(=O)Nc2ccc(Cl)cn2)[C@@H](C(=O)Nc2ccc(-n3ccccc3=O)cc2F)C1", 0.42]
]}

Moving on to another compound below.
According to the records, this compound "O=C(Nc1ccc(Cl)cn1)[C@H]1CN(CC(F)F)C[C@@H]1C(=O)Nc1ccc(-n2ccccc2=O)cc1F" displays Vd of 0.18

---

Consider the following compounds and their measured clearance readings.
Assay: Clearance in rat
Format: ADME, organism-based
Conditions: in vivo
Please state the figure in mL/min/kg; there is no need to write the unit.

Study these solved cases before continuing.
{"columns": ["cpd.smiles", "endpoint.result"],
 "data": [
  ["CC(C)N1C[C@H](C(=O)Nc2ccc(Cl)cn2)[C@@H](C(=O)Nc2ccc(-n3ccccc3=O)cc2F)C1", 4.2],
  ["COC(=O)N1C[C@H](C(=O)Nc2ccc(Cl)cn2)[C@@H](C(=O)Nc2ccc(-n3ccccc3=O)cc2F)C1", 7.3],
  ["O=C(Nc1ccc(Cl)cn1)[C@H]1CN(CC(F)F)C[C@@H]1C(=O)Nc1ccc(-n2ccccc2=O)cc1F", 2.1]
]}

Moving on to another compound below.
According to the records, this compound "CCS(=O)(=O)N1C[C@H](C(=O)Nc2ccc(Cl)cn2)[C@@H](C(=O)Nc2ccc(-n3ccccc3=O)cc2F)C1" displays clearance of 1.3

---

Assay: Half life in po dosed rat
Assay type: ADME, organism-based
Conditions: in vivo
Consider the following molecules and their measured half-life readings.
Express your answer as a number followed by its unit.

Study these solved cases before continuing.
{"columns": ["cpd.smiles", "half-life"],
 "data": [
  ["O=C(Nc1ccc(Cl)cn1)[C@H]1CN(CC(F)F)C[C@@H]1C(=O)Nc1ccc(-n2ccccc2=O)cc1F", "1.3 h"],
  ["CC(C)N1C[C@H](C(=O)Nc2ccc(Cl)cn2)[C@@H](C(=O)Nc2ccc(-n3ccccc3=O)cc2F)C1", "2.9 h"],
  ["CCS(=O)(=O)N1C[C@H](C(=O)Nc2ccc(Cl)cn2)[C@@H](C(=O)Nc2ccc(-n3ccccc3=O)cc2F)C1", "1.1 h"]
]}

According to the records, this molecule "COC(=O)N1C[C@H](C(=O)Nc2ccc(Cl)cn2)[C@@H](C(=O)Nc2ccc(-n3ccccc3=O)cc2F)C1" displays half-life of 1.5 h

---

Assay: Oral bioavailability in rat
Format: ADME, organism-based
Conditions: in vivo
measured.parameter: bioavailability (%)
Please state the figure in %; there is no need to write the unit.

{"columns": ["cpd.smiles", "bioavailability [%]"],
 "data": [
  ["CC(C)N1C[C@H](C(=O)Nc2ccc(Cl)cn2)[C@@H](C(=O)Nc2ccc(-n3ccccc3=O)cc2F)C1", 39],
  ["O=C(Nc1ccc(Cl)cn1)[C@H]1CN(CC(F)F)C[C@@H]1C(=O)Nc1ccc(-n2ccccc2=O)cc1F", 100],
  ["CCS(=O)(=O)N1C[C@H](C(=O)Nc2ccc(Cl)cn2)[C@@H](C(=O)Nc2ccc(-n3ccccc3=O)cc2F)C1", 24]
]}

Moving on to another compound below.
According to the records, this compound "COC(=O)N1C[C@H](C(=O)Nc2ccc(Cl)cn2)[C@@H](C(=O)Nc2ccc(-n3ccccc3=O)cc2F)C1" displays bioavailability of 100
